Data origin, for the record: patent US20110311446A1

Would you kindly list % of binding in the absence of HGF for each of these binders?
measured.on: T1, cMet-Fc fusion protein (human, UniProt P08581 25-932)
T1 construct: extracellular domain; also called soluble cMet-Fc fusion protein; cMet-Fc (R&D Systems); not shown: Fc part, not described
assay.remarks: phage ELISA on cMet-Fc, competitor HGF 100 ng/mL

Worked examples, 2 binders total:
>>> result("AGQFYCSGPPTFQCIMIGT [peptide-displaying phage 550-F11]")
"58%"
>>> result("AQDPGFSKHSMGHGYPSKMNWG (on M13 phage) [peptide-displaying phage 115-G02]")
"57%"

Below are 2 binders. Give each one its % of binding in the absence of HGF.
1. AGETVCYWLNGWFCVDDGT (on M13 phage) [peptide-displaying phage 274-B07]
2. GSGDPCSPGPSINGHCSVMAP (on M13 phage) [peptide-displaying phage 453-A05]

Resp:
1: 343%; 2: 514%
